# key: entry, value: n (number of NGS reads of the unique amino acid sequence)
Target: ENL YEATS domain (AviSUMO-ENL YEATS) (Homo sapiens)
Construct: encoding ENL YEATS (aa 1−148) was cloned in pET28a-; made in house; host or cells: E. coli BL21(DE3pLysS), co-expressed with BirA (pBirAcm)
Sequence (Q03111 1-148): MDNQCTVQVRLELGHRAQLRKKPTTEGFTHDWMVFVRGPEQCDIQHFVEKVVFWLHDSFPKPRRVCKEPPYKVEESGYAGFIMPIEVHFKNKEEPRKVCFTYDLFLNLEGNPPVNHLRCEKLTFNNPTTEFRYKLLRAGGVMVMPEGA
Assay: Phage panning of BuK-containing 7-mer library against AviSUMO-ENL YEATS with Illumina NGS abundance
Conditions: sheet ENLR3: round 3 of panning against ENL YEATS; TAG = amber codon (BuK); 7-mer library positions V1-V7
The response must contain the number and no unit.

// worked examples, n (number of NGS reads of the unique amino acid sequence) included
Request: Hello, please tell me recorded n (number of NGS reads of the unique amino acid sequence) for this one: "LCGPRTAGD"
Result: 1

Request: Hello, please tell me recorded n (number of NGS reads of the unique amino acid sequence) for this one: "YDLYCYTAG"
Result: 3

Request: Hello, please tell me recorded n (number of NGS reads of the unique amino acid sequence) for this one: "YYVYCYTAG"
Result: 38

Request: Hello, please tell me recorded n (number of NGS reads of the unique amino acid sequence) for this one: "SLMMCQTAG"
Result: 2

Request: Hello, please tell me recorded n (number of NGS reads of the unique amino acid sequence) for this one: "SMHACTAGT"
Result: 2

Next:
Request: Hello, please tell me recorded n (number of NGS reads of the unique amino acid sequence) for this one: "HVIYCYTAG"
Result: 2

Request: Hello, please tell me recorded n (number of NGS reads of the unique amino acid sequence) for this one: "WWIIGTAGG"
Result: 6

Request: Hello, please tell me recorded n (number of NGS reads of the unique amino acid sequence) for this one: "WWIIETAGG"
Result: 33339

Request: Hello, please tell me recorded n (number of NGS reads of the unique amino acid sequence) for this one: "CPCWTAGLL"
Result: 1

---

# key: entry, value: pIC50
target: ENL YEATS domain (His-ENL YEATS) (Homo sapiens, UniProt Q03111); construct: (aa 1−148) was cloned in pET19b; made in house; host or cells: E. coli BL21(DE3pLysS); assay: AlphaScreen inhibition of ENL YEATS binding to biotinylated H3K27cr peptide; conditions: mean ± SD, n = 3
Where a SMILES comes first, the peptide text is derived from it. The star is where a group is joined. Crotonyl(E) = C/C=C/C(=O)*; 2Furoyl = O=C(c1ccco1)*; Butyryl = CCCC(=O)*
// pIC50 is dimensionless: -log10 of concentration (M)

// worked examples, pIC50 included
Request: Hello, please tell me recorded pIC50 for this one: CC(C)[C@H](NC(=O)[C@H](CC(=O)O)NC(=O)[C@@H](N)Cc1ccc(O)cc1)C(=O)N[C@@H](Cc1ccc(O)cc1)C(=O)N[C@@H](CS)C(=O)N[C@@H](Cc1ccc(O)cc1)C(=O)N[C@@H](CCCCNC(=O)c1ccco1)C(N)=O [ENL-S1f] (H-YDVYCYK(2Furoyl)-NH2)
Result: 7.65

Request: Hello, please tell me recorded pIC50 for this one: CCCC(=O)NCCCC[C@H](NC(=O)[C@H](Cc1ccc(O)cc1)NC(=O)[C@H](CS)NC(=O)[C@H](Cc1ccc(O)cc1)NC(=O)[C@@H](NC(=O)[C@H](CC(=O)O)NC(=O)[C@@H](N)Cc1ccc(O)cc1)C(C)C)C(N)=O [ENL-S1] (H-YDVYCYK(Butyryl)-NH2)
Result: 7.20

Could you now look at the following compound, please?
Request: Hello, please tell me recorded pIC50 for this one: C/C=C/C(=O)NCCCC[C@H](NC(=O)[C@H](Cc1ccc(O)cc1)NC(=O)[C@H](CS)NC(=O)[C@H](Cc1ccc(O)cc1)NC(=O)[C@@H](NC(=O)[C@H](CC(=O)O)NC(=O)[C@@H](N)Cc1ccc(O)cc1)C(C)C)C(N)=O [ENL-S1c] (H-YDVYCYK(Crotonyl(E))-NH2)
Result: 7.70
